Origin of the recorded values: patent US10913736B2

# Test system: T. brucei
# procedureSummary: Growth inhibition assay of T. brucei cell cultures (Alamar Blue, 48 h)
# Assay type: cell-based
# measurementSetup: Trypanosoma brucei; read-out: B) T. brucei EC50
pEC50: −log10 of the molar value.
recordedEndpoint: pEC50

[
  {
    "compound": "COc1c(Br)cc(Br)cc1CN[C@H]1CCCN(c2nc3nc(Cl)ccc3[nH]2)C1",
    "resultOperator": "=",
    "numericResult": 6.48
  },
  {
    "compound": "Clc1ccc2[nH]c(N3CCC[C@H](NCc4cc(Br)cc(Br)c4)C3)nc2n1",
    "resultOperator": "=",
    "numericResult": 7.07
  },
  {
    "compound": "Clc1cc(Cl)cc(CNCCSc2nc3nc(Cl)ccc3[nH]2)c1",
    "resultOperator": "=",
    "numericResult": 5.85
  },
  {
    "compound": "Clc1cc(Cl)cc(CNC2CCCC(c3nc4cc(Cl)ccc4[nH]3)C2)c1 (stereo not shown)",
    "resultOperator": "=",
    "numericResult": 5.71
  },
  {
    "compound": "O=C(CSc1nc2ccc(Cl)nc2[nH]1)NCc1cc(Cl)cc(Cl)c1",
    "resultOperator": "=",
    "numericResult": 6.18
  },
  {
    "compound": "CCN(Cc1cc(Cl)cc(Cl)c1)[C@H]1CCCN(c2nc3ccc(Cl)nc3[nH]2)C1",
    "resultOperator": "=",
    "numericResult": 5.76
  },
  {
    "compound": "N[C@@H](CC(=O)NCc1nc2ccccc2[nH]1)Cc1ccc(F)cc1",
    "resultOperator": "<",
    "numericResult": 5.00
  },
  {
    "compound": "Clc1cc(Cl)cc(CNCCc2nc3ccc(Cl)cc3[nH]2)c1",
    "resultOperator": "=",
    "numericResult": 6.20
  },
  {
    "compound": "O=C(Cc1cc(Cl)cc(Cl)c1)N1CCCC(c2nc3cc(Cl)c(F)cc3[nH]2)C1 (stereo not shown)",
    "resultOperator": "=",
    "numericResult": 5.48
  },
  {
    "compound": "O=C1CN(Cc2cccc(Cl)c2)CCN1Cc1nc2ccccc2[nH]1",
    "resultOperator": "<",
    "numericResult": 4.70
  },
  {
    "compound": "Clc1cc(Cl)cc(CN[C@H]2CCCN(c3nc4nc(Cl)ccc4[nH]3)C2)c1",
    "resultOperator": "=",
    "numericResult": 7.41
  },
  {
    "compound": "Fc1ccc2nc(NCCCNc3cc(Cl)cc(Cl)c3)[nH]c2n1",
    "resultOperator": "=",
    "numericResult": 6.43
  },
  {
    "compound": "O=C(NCc1nc2cccnc2[nH]1)OCCc1ccc(Cl)cc1Cl",
    "resultOperator": "=",
    "numericResult": 5.56
  },
  {
    "compound": "Clc1cc(Cl)cc(CN[C@H]2CCN(c3nc4ccc(Cl)nc4[nH]3)C2)c1",
    "resultOperator": "=",
    "numericResult": 5.81
  },
  {
    "compound": "Clc1cc(Cl)cc(CN[C@@H]2CCC[C@H](c3nc4nc(Cl)ccc4[nH]3)C2)c1",
    "resultOperator": "=",
    "numericResult": 6.24
  },
  {
    "compound": "COc1ccc(Oc2nc(O)nc(NCc3nc4ccc(F)nc4[nH]3)n2)c(Cl)c1",
    "resultOperator": "=",
    "numericResult": 5.23
  },
  {
    "compound": "O=C(CCNc1ccc(Cl)cc1Cl)NCc1nc2ccccc2[nH]1",
    "resultOperator": "=",
    "numericResult": 4.90
  },
  {
    "compound": "O=C1CN(Cc2ccccc2Cl)CCN1Cc1nc2ccccc2[nH]1",
    "resultOperator": "<",
    "numericResult": 4.70
  },
  {
    "compound": "O=C(CCc1nc2nc(Cl)ccc2[nH]1)NCc1cc(Cl)cc(Cl)c1",
    "resultOperator": "=",
    "numericResult": 4.93
  },
  {
    "compound": "O=C(Nc1cc(Cl)cc(Cl)c1)[C@H]1CCCN(c2nc3nc(Cl)ccc3[nH]2)C1",
    "resultOperator": "<",
    "numericResult": 4.70
  },
  {
    "compound": "Oc1c(Cl)cc(Cl)cc1CN[C@H]1CCCN(c2nc3nc(Cl)ccc3[nH]2)C1",
    "resultOperator": "=",
    "numericResult": 6.62
  },
  {
    "compound": "O=C(Cc1ccc(Cl)cc1Cl)NCc1nc2ccc(Cl)cc2[nH]1",
    "resultOperator": "=",
    "numericResult": 5.26
  },
  {
    "compound": "O=C(Cc1cc(Cl)cc(Cl)c1)N1CCCC(c2nc3cc(Cl)ccc3[nH]2)C1 (stereo not shown)",
    "resultOperator": "=",
    "numericResult": 5.85
  },
  {
    "compound": "Clc1cc(Br)cc(CN[C@H]2CCCN(c3nc4nc(Cl)ccc4[nH]3)C2)c1",
    "resultOperator": "=",
    "numericResult": 7.15
  },
  {
    "compound": "CCN(CCNCc1cc(Cl)cc(Cl)c1)c1nc2nc(Cl)ccc2[nH]1",
    "resultOperator": "=",
    "numericResult": 7.10
  },
  {
    "compound": "Clc1ccc2[nH]c([C@H]3CCCN(Cc4ccc(Cl)c(Cl)c4)C3)nc2n1",
    "resultOperator": "=",
    "numericResult": 6.34
  },
  {
    "compound": "FC(F)(CNCc1cc(Cl)cc(Cl)c1)CNc1nc2cccnc2[nH]1",
    "resultOperator": "=",
    "numericResult": 5.81
  },
  {
    "compound": "CC(=O)N(CCN(C)c1nc2ccc(Cl)nc2[nH]1)Cc1cc(Cl)cc(Cl)c1",
    "resultOperator": "=",
    "numericResult": 7.12
  },
  {
    "compound": "Clc1cc(Cl)cc(CNCCNc2nc3ncc(Cl)cc3[nH]2)c1",
    "resultOperator": "=",
    "numericResult": 5.41
  },
  {
    "compound": "O=C(Cc1cc(Cl)cc(Cl)c1)N1CCCC(c2nc3nc(Cl)ccc3[nH]2)C1 (stereo not shown)",
    "resultOperator": "=",
    "numericResult": 5.98
  },
  {
    "compound": "O=C(Cc1ccc(Cl)cc1Cl)NCc1nc2ccc(Cl)nc2[nH]1",
    "resultOperator": "<",
    "numericResult": 4.70
  },
  {
    "compound": "Fc1ccc2[nH]c(C3CCCN(CCc4cc(Cl)cc(Cl)c4)C3)nc2n1 (stereo not shown)",
    "resultOperator": "=",
    "numericResult": 5.91
  },
  {
    "compound": "Clc1cc(Cl)cc(NCCNCc2nc3ccc(Cl)nc3[nH]2)c1",
    "resultOperator": "=",
    "numericResult": 5.85
  },
  {
    "compound": "CC(=O)N(CCN(C)c1nc2nc(F)ccc2[nH]1)Cc1cc(Cl)cc(Cl)c1",
    "resultOperator": "=",
    "numericResult": 6.60
  }
]
